Listing: switch fluorescence ratio of selected sequences
Tested on: ATP;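 also: ATP exposure 15 min at 22 °C before imaging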
Assay Details: switch fluorescence ratio, 500 uM ATP over buffer (Cy3 cluster intensity, sum of 5 cycles each) (fold (ratio)); higher = stronger signal-on switching upon ATP binding; sequences stand for … in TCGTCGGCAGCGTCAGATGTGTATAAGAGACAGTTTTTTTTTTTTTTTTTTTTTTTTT…TC
Assay Setup: aptamer strand: ATP DNA aptamer (quencher-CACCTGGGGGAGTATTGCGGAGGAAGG + anchor), 100 nM annealed; ATP concentration: 500 uM
No unit in the answer, only the number.

Consider the following illustrative entries.
| Biosequence | Target Or System | switch fluorescence ratio |
| --- | --- | --- |
| GATTATAAGA | ATP | 0.989 |
| GGGTGTTGTC | ATP | 1.01 |
| CAAATGTCAG | ATP | 0.99 |

Next, consider the following sequence.
Provide one value: measured switch fluorescence ratio of `ATTAGTTTGA`
0.985
